- TARGET_OR_TEST_SYSTEM: BCMA (analyte of Table 4A)
- Sequence (Q02223 whole entry): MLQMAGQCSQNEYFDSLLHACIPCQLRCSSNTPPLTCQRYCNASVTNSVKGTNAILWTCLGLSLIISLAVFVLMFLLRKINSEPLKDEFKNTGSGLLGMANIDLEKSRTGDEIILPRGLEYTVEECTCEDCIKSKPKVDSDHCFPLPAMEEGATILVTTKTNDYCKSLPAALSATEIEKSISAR
- EXPERIMENT_SUMMARY: SPR (Bio-Rad ProteOn XPR36), IgG amine-coupled, BCMA as analyte, kinetic titration; species of BCMA and temperature not stated for Table 4A
MEASURED_METRIC: t1/2 (h)
Give bare numbers, in h.

1) COMBO_Rd4_0.6nM_C29 (antibody, V domains shown, Tested as IgG) VH: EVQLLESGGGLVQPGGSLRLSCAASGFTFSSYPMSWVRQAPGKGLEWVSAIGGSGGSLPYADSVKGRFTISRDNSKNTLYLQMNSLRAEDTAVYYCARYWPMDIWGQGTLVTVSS VL: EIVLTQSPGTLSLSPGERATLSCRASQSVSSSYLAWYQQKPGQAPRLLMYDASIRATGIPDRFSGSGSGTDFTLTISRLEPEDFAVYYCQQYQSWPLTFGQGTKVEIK; 1.38
2) A02_Rd4_6nM_C01 (antibody, V domains shown) VH: EVQLLESGGGLVQPGGSLRLSCAASGFTFSSYAMNWVRQAPGKGLEWVSAITASGGSTYYADSVKGRFTISRDNSKNTLYLQMNSLRAEDTAVYYCARYWPMSLWGQGTLVTVSS VL: EIVLTQSPGTLSLSPGERATLSCRASQSVSAYYLAWYQQKPGQAPRLLMYDASIRATGIPDRFSGSGSGTDFTLTISRLEPEDFAVYYCQQYERWPLTFGQGTKVEIK; 6.85
3) A02_Rd4_6nM_C16 (antibody, V domains shown, Tested as IgG; also called P5AC16) VH: EVQLLESGGGLVQPGGSLRLSCAASGFTFSSYAMNWVRQAPGKGLEWVSAISDFGGSTYYADSVKGRFTISRDNSKNTLYLQMNSLRAEDTAVYYCARYWPMDIWGQGTLVTVSS VL: EIVLTQSPGTLSLSPGERATLSCRASQSVSDLYLAWYQQKPGQAPRLLMYDASIRATGIPDRFSGSGSGTDFTLTISRLEPEDFAVYYCQQYQTWPLTFGQGTKVEIK; 3.12

Proceeding to the next binder to report its t1/2.
Query :: Suppose we examine the binder L3.PY/H3.TAQ (antibody, V domains shown, Tested as IgG) VH: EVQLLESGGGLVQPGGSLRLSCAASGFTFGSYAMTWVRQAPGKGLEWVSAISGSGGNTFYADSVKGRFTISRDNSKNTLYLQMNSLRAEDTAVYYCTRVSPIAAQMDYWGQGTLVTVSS VL: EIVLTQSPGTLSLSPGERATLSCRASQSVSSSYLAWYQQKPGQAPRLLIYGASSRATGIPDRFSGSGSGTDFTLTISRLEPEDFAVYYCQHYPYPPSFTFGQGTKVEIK ; what t1/2 value has been reported?
Result :: 1.4

# credit: patent US20160297884A1
